- MEASUREMENT_DESCRIPTION: serum level of Lisofylline in hemorrhaged mice
- Assay type: in vivo
- MEASUREMENT_CONDITIONS: male, mouse, intravenous, hemorrhaged Balb/C mice, 5 minutes after 100 mg/kg Lisofylline given with resuscitation blood, read-out: serum levels of Lisofylline
REPORTED_PROPERTY: concentration at 5 min (ng/mL)
Provide only the numeric value, understood in ng/mL.

Field request: concentration at 5 min | item: C[C@@H](O)CCCCn1c(=O)c2c(ncn2C)n(C)c1=O
44000
